FYI, the data here is from patent US20260248972A1.

ASSAY INFO: in vivo
REPORTED CONDITIONS: BALB/c nude, mouse, in vivo, iv, total radioactivity, % ID/g Pancreas
OUTCOME MEASURE: tissue uptake at 24 h (%ID/g)
Kindly provide the numeric value in %ID/g only, without the unit symbol.

Lookup: Recall and state the measured tissue uptake at 24 h for C[C@@H](O)[C@H](NC(=O)[C@@H]1CSSC[C@H](NC(=O)[C@@H](Cc2ccccc2)NC(=O)COCCOCCNC(=O)COCCOCCNC(=O)[C@H](CCCCNC(=O)c2cccc(NC(=O)N[C@@H]3CN(C4CCCCC4)c4ccccc4N(CC(=O)C(C)(C)C)C3=O)c2)NC(=O)CN2CCN(CC(=O)O)CCN(CC(=O)O)CCN(CC(=O)O)CC2)C(=O)N[C@@H](Cc2ccc(O)cc2)C(=O)N[C@H](Cc2c[nH]c3ccccc23)C(=O)N[C@@H](CCCCN)C(=O)N[C@@H]([C@@H](C)O)C(=O)N1)C(=O)O [Compound 177Lu-I-39, metal not drawn] .
Found: 0.94

Lookup: Recall and state the measured tissue uptake at 24 h for CC(C)(C)C(=O)CN1C(=O)[C@H](NC(=O)Nc2cccc(C(=O)N[C@@H](CCC(=O)N[C@@H](CCC(=O)N[C@@H](CCC(=O)N[C@@H](CCCCNC(=O)COCCOCCNC(=O)COCCOCCNC(=O)CCC(C(=O)O)N3CCN(CC(=O)O)CCN(CC(=O)O)CCN(CC(=O)O)CC3)C(N)=O)C(=O)O)C(=O)O)C(=O)O)c2)CN(C2CCCCC2)c2ccccc21 (some centres unmarked) [^177Lu-C-4, metal not drawn, reference compound] .
Found: 0.01

* * *

ASSAY INFO: in vivo
REPORTED CONDITIONS: BALB/c nude, mouse, in vivo, iv, total radioactivity, uptake Stomach
OUTCOME MEASURE: tissue uptake at 24 h (%ID/g)
Kindly provide the numeric value in %ID/g only, without the unit symbol.

Lookup: Recall and state the measured tissue uptake at 24 h for C[C@@H](O)[C@H](NC(=O)[C@@H]1CSSC[C@H](NC(=O)[C@@H](Cc2ccccc2)NC(=O)CCOCCOCCOCCOCCOCCOCCNC(=O)[C@H](CCCCNC(=O)c2cccc(NC(=O)N[C@@H]3CN(C4CCCCC4)c4ccccc4N(CC(=O)C(C)(C)C)C3=O)c2)NC(=O)CN2CCN(CC(=O)O)CCN(CC(=O)O)CCN(CC(=O)O)CC2)C(=O)N[C@@H](Cc2ccc(O)cc2)C(=O)N[C@H](Cc2c[nH]c3ccccc23)C(=O)N[C@@H](CCCCN)C(=O)N[C@@H]([C@@H](C)O)C(=O)N1)C(=O)O [Compound I-40, DOTA-K(Z360)-PEG6-f[CYwKTC]T-OH] .
Found: 1.8

* * *

Exercise: state measured tissue uptake at 24 h for each of the compounds provided.
ASSAY INFO: in vivo
REPORTED CONDITIONS: BALB/c nude, mouse, in vivo, iv, total radioactivity, uptake Tumor
Experimental: To a 0.5 M NaOAc buffer (20-50 μL, pH=4.5) was added 4 μL of exemplary or comparator compound in DMSO stock solution (2000 μM) and 2 mCi ^177Lu (ITM Isotope Technologies Munich), the resulting mixture was heated to 95° C. for 15 min. The resulting product was analyzed by radio-TLC and radio-HPLC (column: Shim-pack GIST 5 μm 4.6*150 mm; buffer A: 0.2% formic acid H2O; buffer B: 0.1% formic acid acetonitrile; flow rate: 1 mL/min; gradient: 0-5 min: 10% B to 95% B; then 5-8 min: 95% B). […]
Kindly provide the numeric value in %ID/g only, without the unit symbol.

Lookup: Recall and state the measured tissue uptake at 24 h for C[C@@H](O)[C@H](NC(=O)[C@@H]1CSSC[C@H](NC(=O)[C@@H](Cc2ccccc2)NC(=O)CCOCCOCCOCCOCCOCCOCCNC(=O)[C@H](CCCCNC(=O)c2cccc(NC(=O)N[C@@H]3CN(C4CCCCC4)c4ccccc4N(CC(=O)C(C)(C)C)C3=O)c2)NC(=O)CN2CCN(CC(=O)O)CCN(CC(=O)O)CCN(CC(=O)O)CC2)C(=O)N[C@@H](Cc2ccc(O)cc2)C(=O)N[C@H](Cc2c[nH]c3ccccc23)C(=O)N[C@@H](CCCCN)C(=O)N[C@@H]([C@@H](C)O)C(=O)N1)C(=O)O [Compound I-40, DOTA-K(Z360)-PEG6-f[CYwKTC]T-OH] .
Found: 17.9

Lookup: Recall and state the measured tissue uptake at 24 h for C[C@@H](O)[C@H](NC(=O)[C@@H]1CSSC[C@H](NC(=O)[C@@H](Cc2ccccc2)NC(=O)CCOCCOCCOCCNC(=O)[C@H](CCCCNC(=O)c2cccc(NC(=O)N[C@@H]3CN(C4CCCCC4)c4ccccc4N(CC(=O)C(C)(C)C)C3=O)c2)NC(=O)CN2CCN(CC(=O)O)CCN(CC(=O)O)CCN(CC(=O)O)CC2)C(=O)N[C@@H](Cc2ccc(O)cc2)C(=O)N[C@H](Cc2c[nH]c3ccccc23)C(=O)N[C@@H](CCCCN)C(=O)N[C@@H]([C@@H](C)O)C(=O)N1)C(=O)O [Compound I-38, DOTA-K(Z360)-PEG3-f[CYwKTC]T-OH] .
Found: 14.3

* * *

ASSAY INFO: in vivo
REPORTED CONDITIONS: BALB/c nude, mouse, in vivo, iv, total radioactivity, T/K Tumor/Kidney ratio
OUTCOME MEASURE: tissue to tissue ratio at 24 h
Form: value (number only, do not type unit).

Lookup: Recall and state the measured tissue to tissue ratio at 24 h for C[C@@H](O)[C@H](NC(=O)[C@@H]1CSSC[C@H](NC(=O)[C@@H](Cc2ccccc2)NC(=O)[C@H](CCCCNC(=O)CC[C@H](NC(=O)CNC(=O)c2cccc(NC(=O)N[C@@H]3CN(C4CCCCC4)c4ccccc4N(CC(=O)C(C)(C)C)C3=O)c2)C(=O)O)NC(=O)COCCOCCNC(=O)CCC(C(=O)O)N2CCN(CC(=O)O)CCN(CC(=O)O)CCN(CC(=O)O)CC2)C(=O)N[C@@H](Cc2ccc(O)cc2)C(=O)N[C@H](Cc2c[nH]c3ccccc23)C(=O)N[C@@H](CCCCN)C(=O)N[C@@H]([C@@H](C)O)C(=O)N1)C(=O)O (stereo partly drawn) .
Found: 0.6

Lookup: Recall and state the measured tissue to tissue ratio at 24 h for C[C@@H](O)[C@H](NC(=O)[C@@H]1CSSC[C@H](NC(=O)[C@@H](Cc2ccccc2)NC(=O)COCCOCCNC(=O)[C@H](CCCCNC(=O)c2cccc(NC(=O)N[C@@H]3CN(C4CCCCC4)c4ccccc4N(CC(=O)C(C)(C)C)C3=O)c2)NC(=O)COCCOCCNC(=O)CN2CCN(CC(=O)O)CCN(CC(=O)O)CCN(CC(=O)O)CC2)C(=O)N[C@@H](Cc2ccc(O)cc2)C(=O)N[C@H](Cc2c[nH]c3ccccc23)C(=O)N[C@@H](CCCCN)C(=O)N[C@@H]([C@@H](C)O)C(=O)N1)C(=O)O [Compound I-52, DOTA-OEG-K(Z360)-OEG-f[CYwKTC]T-OH] .
Found: 0.9

Lookup: Recall and state the measured tissue to tissue ratio at 24 h for C[C@@H](O)[C@H](NC(=O)[C@@H]1CSSC[C@H](NC(=O)[C@@H](Cc2ccccc2)NC(=O)[C@H](CCCCNC(=O)c2cccc(NC(=O)N[C@@H]3CN(C4CCCCC4)c4ccccc4N(CC(=O)C(C)(C)C)C3=O)c2)NC(=O)COCCOCCNC(=O)COCCOCCNC(=O)CN2CCN(CC(=O)O)CCN(CC(=O)O)CCN(CC(=O)O)CC2)C(=O)N[C@@H](Cc2ccc(O)cc2)C(=O)N[C@H](Cc2c[nH]c3ccccc23)C(=O)N[C@@H](CCCCN)C(=O)N[C@@H]([C@@H](C)O)C(=O)N1)C(=O)O [Compound I-41, DOTA-OEG-OEG-K(Z360)-f[CYwKTC]T-OH] .
Found: 1.7

Lookup: Recall and state the measured tissue to tissue ratio at 24 h for C[C@@H](O)[C@H](NC(=O)[C@@H]1CSSC[C@H](NC(=O)[C@@H](Cc2ccccc2)NC(=O)COCCOCCNC(=O)[C@H](CCCCNC(=O)[C@H](CCC(=O)O)NC(=O)c2cccc(NC(=O)N[C@@H]3CN(C4CCCCC4)c4ccccc4N(CC(=O)C(C)(C)C)C3=O)c2)NC(=O)CN2CCN(CC(=O)O)CCN(CC(=O)O)CCN(CC(=O)O)CC2)C(=O)N[C@@H](Cc2ccc(O)cc2)C(=O)N[C@H](Cc2c[nH]c3ccccc23)C(=O)N[C@@H](CCCCN)C(=O)N[C@@H]([C@@H](C)O)C(=O)N1)C(N)=O [Compound I-3, DOTA-K(-E-Z360)-OEG-f[CYwKTC]T-NH2] .
Found: 0.8

Lookup: Recall and state the measured tissue to tissue ratio at 24 h for C[C@@H](O)[C@H](NC(=O)[C@@H]1CSSC[C@H](NC(=O)[C@@H](Cc2ccccc2)NC(=O)COCCOCCNC(=O)COCCOCCNC(=O)[C@H](CCCCNC(=O)c2cccc(NC(=O)N[C@@H]3CN(C4CCCCC4)c4ccccc4N(CC(=O)C(C)(C)C)C3=O)c2)NC(=O)CN2CCN(CC(=O)O)CCN(CC(=O)O)CCN(CC(=O)O)CC2)C(=O)N[C@@H](Cc2ccc(O)cc2)C(=O)N[C@H](Cc2c[nH]c3ccccc23)C(=O)N[C@@H](CCCCN)C(=O)N[C@@H]([C@@H](C)O)C(=O)N1)C(=O)O [Compound I-39, DOTA-K(Z360)-OEG-OEG-f[CYwKTC]T-OH] .
Found: 2.3

Lookup: Recall and state the measured tissue to tissue ratio at 24 h for C[C@@H](O)[C@H](NC(=O)[C@@H]1CSSC[C@H](NC(=O)[C@@H](Cc2ccccc2)NC(=O)[C@H](CCCCNC(=O)c2cccc(NC(=O)N[C@@H]3CN(C4CCCCC4)c4ccccc4N(CC(=O)C(C)(C)C)C3=O)c2)NC(=O)CCOCCOCCOCCNC(=O)CN2CCN(CC(=O)O)CCN(CC(=O)O)CCN(CC(=O)O)CC2)C(=O)N[C@@H](Cc2ccc(O)cc2)C(=O)N[C@H](Cc2c[nH]c3ccccc23)C(=O)N[C@@H](CCCCN)C(=O)N[C@@H]([C@@H](C)O)C(=O)N1)C(=O)O [Compound I-48, DOTA-PEG3-K(Z360)-f[CYwKTC]T-OH] .
Found: 1.8
